Tested on: Aorta
Experiment: Vasodilatory activity in Sprague-Dawley rat aortic rings with endothelium assessed as inhibition of phenylephrine-induced vasoconstriction
Type: functional, tissue-based
pEC50: −log10 of the molar value.
Quantity name: pEC50

{"Compound": "COC(=O)C1=C(C)NC(C)=C(C(=O)OCCOc2cc(O)cc(O)c2C(=O)/C=C/c2ccc3c(c2)OCO3)C1c1cccc([N+](=O)[O-])c1 (centres undefined)", "Test target": "Aorta", "pEC50": 5.03}

(I) Cc1c(COc2cc(O)cc(O)c2C(=O)/C=C/c2ccc3c(c2)OCO3)no[n+]1[O-]
(II) COC(=O)C1=C(C)NC(C)=C(C(=O)OCCOc2cc(O)cc(O)c2C(=O)/C=C/c2ccc(O)cc2)C1c1cccc([N+](=O)[O-])c1 (centres undefined)
# min-compare on pEC50 between I and II API: response body contains the label of the selected item. I
(I: 4.92, II: 5.54)

* * *

Test system: Aorta
Experiment: Vasodilatory activity in Sprague-Dawley rat aortic rings with endothelium assessed as inhibition of phenylephrine-induced vasoconstriction
Type: functional, tissue-based
pEC50: −log10 of the molar value.
Quantity name: pEC50

{"Compound": "COC(=O)C1=C(C)NC(C)=C(C(=O)OCCOc2cc(O)cc(O)c2C(=O)/C=C/c2cccc(Br)c2)C1c1cccc([N+](=O)[O-])c1 (stereo unspecified)", "pEC50": 5.19}
{"Compound": "O=C(/C=C/c1ccc2c(c1)OCO2)c1c(O)cc(O)cc1OCCO[N+](=O)[O-]", "pEC50": 4.87}
{"Compound": "O=C(/C=C/c1ccc2c(c1)OCO2)c1c(OCCO[N+](=O)[O-])cc(OCCO[N+](=O)[O-])cc1OCCO[N+](=O)[O-]", "pEC50": 5.08}
{"Compound": "COC(=O)C1=C(C)NC(C)=C(C(=O)OCCOc2cc(O)ccc2C(=O)/C=C/c2ccc3c(c2)OCO3)C1c1cccc([N+](=O)[O-])c1 (stereo unspecified)", "pEC50": 5.01}
{"Compound": "Cc1no[n+]([O-])c1COc1cc(O)cc(O)c1C(=O)/C=C/c1ccc2c(c1)OCO2", "pEC50": 5.05}
{"Compound": "Cc1c(COc2cc(O)c(C(=O)/C=C/c3ccc4c(c3)OCO4)c(OCCO[N+](=O)[O-])c2)no[n+]1[O-]", "pEC50": 5.03}

The reported measurements were obtained from ChEMBL document CHEMBL1240426.
